# tested system: hGLP-1R (Homo sapiens, UniProt P43220)
# Sequence (P43220 24-463): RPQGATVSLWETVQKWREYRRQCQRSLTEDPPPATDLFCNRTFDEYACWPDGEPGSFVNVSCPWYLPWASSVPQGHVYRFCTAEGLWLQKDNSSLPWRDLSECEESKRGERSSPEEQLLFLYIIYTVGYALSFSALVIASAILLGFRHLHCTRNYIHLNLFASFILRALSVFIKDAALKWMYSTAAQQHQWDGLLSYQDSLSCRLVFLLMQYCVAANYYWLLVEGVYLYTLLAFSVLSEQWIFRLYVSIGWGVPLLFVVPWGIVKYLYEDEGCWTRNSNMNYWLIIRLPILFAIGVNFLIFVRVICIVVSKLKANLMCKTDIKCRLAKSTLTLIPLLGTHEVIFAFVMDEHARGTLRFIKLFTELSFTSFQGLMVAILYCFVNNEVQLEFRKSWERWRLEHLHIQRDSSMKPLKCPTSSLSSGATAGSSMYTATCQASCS
# experiment notes: Functional cAMP activity in the presence of 1% HSA
# Type: cell-based
# experimental context: read-out: cAMP Rel EC50, hGLP-1R
pEC50: −log10 of the molar value. Starred links: 1 amine or outer side, 2 acyl side, 3 side chain; linkers in the order of their positions; H or OH if unused. Non-standard residues stand in square brackets, D forms with d. Groups on a side chain read outwards from the residue. No end group written: not given here. *: point of attachment. C18 diacid = O=C(O)CCCCCCCCCCCCCCCCC(=O)*; αMePhe(2-F) = C[C@](N)(Cc1ccccc1F)C(=O)O; γGlu = O=C(O)[C@H](CCC(=O)[*:2])N[*:1]; NMeY = CN[C@@H](Cc1ccc(O)cc1)C(=O)O; αMe4Pal = C[C@](N)(Cc1ccncc1)C(=O)O; αMeY = C[C@](N)(Cc1ccc(O)cc1)C(=O)O; αMeF = C[C@](N)(Cc1ccccc1)C(=O)O; 4Pal = N[C@@H](Cc1ccncc1)C(=O)O; αMeL = CC(C)C[C@](C)(N)C(=O)O; αMeS = C[C@](N)(CO)C(=O)O; Orn = NCCC[C@H](N)C(=O)O; AEEA = NCCOCCOCC(=O)O; Aib = CC(C)(N)C(=O)O

[
  {
    "substance": "H-Y[Aib]QGT[αMePhe(2-F)]TSD[4Pal][αMeS]I[αMeL]LD[Orn]K([γGlu-γGlu-C18 diacid])AQ[αMe4Pal]EFI[dE][αMeY]LVEGGPSSGAPPPSGE-NH2 [Example 1160]",
    "pEC50": 7.51
  },
  {
    "substance": "H-Y[Aib]QGTFTSD[4Pal]SQ[αMeL]LDKK([γGlu-γGlu-C18 diacid])AQ[αMe4Pal]QFIE[αMeY]LIEGGPSSGAPPPSGS-NH2 [Example 934]",
    "pEC50": 6.76
  },
  {
    "substance": "Y[Aib]QGT[αMeF]TSD[4Pal][αMeS]I[αMeL]LD[Orn]K([AEEA-γGlu-C18 diacid])AQ[αMe4Pal]EFI[dE][αMeY]LIEGGPSSGEPPPSGGGE-NH2 [Example 1169]",
    "pEC50": 7.10
  },
  {
    "substance": "H-Y[Aib]QGTFTSD[4Pal]SQ[αMeL]LDKK([AEEA-γGlu-C18 diacid])AQ[αMe4Pal]AFIE[αMe4Pal]LIE[Aib]GPSSGAPPPSGTE-NH2 [Example 1116]",
    "pEC50": 6.70
  },
  {
    "substance": "H-[NMeY][Aib]QGTFTSD[4Pal][αMeS]Q[αMeL]LD[Orn]K([dE-γGlu-C18 diacid])AQ[αMe4Pal]QFIQ[αMeY]LIE[Aib]GPSSGAPPPSGGGE-NH2 [Example 1134]",
    "pEC50": 7.10
  },
  {
    "substance": "H-Y[Aib]QGTFTSD[4Pal]SQ[αMeL]LDKK([γGlu-γGlu-C18 diacid])AQ[αMe4Pal]AFIEYLIE[Aib]GPSSGAPPPSGTE-NH2 [Example 1126]",
    "pEC50": 6.68
  },
  {
    "substance": "H-Y[Aib]QGTFTSD[4Pal]S[Orn][αMeL]LD[Orn]K([γGlu-γGlu-C18 diacid])AQ[αMe4Pal]QFIEYLIAGGPSSGAPPPSGSEE-NH2 [Example 1000]",
    "pEC50": 6.55
  },
  {
    "substance": "H-Y[Aib]QGTFTSDFS[Orn][αMeL]LDKK([AEEA-AEEA-γGlu-C18 diacid])AQ[Aib]AFIEYLLE[Aib]GPSSGAPPPSGS-NH2 [Example 75]",
    "pEC50": 6.06
  },
  {
    "substance": "H-Y[Aib]QGTFTSD[4Pal]SQ[αMeL]LDKK([AEEA-γGlu-C18 diacid])AQ[αMe4Pal]AFIEYLIE[Aib]GPSSGAPPPSGSEE-NH2 [Example 897]",
    "pEC50": 6.25
  },
  {
    "substance": "H-Y[Aib]QGT[αMePhe(2-F)]TSD[4Pal][αMeS]I[αMeL]LD[Orn]K([AEEA-γGlu-C18 diacid])AA[Aib]EFI[dE][αMeY]LIEGGPSSGAPPPSGQ-OH [Example 722]",
    "pEC50": 7.57
  },
  {
    "substance": "H-Y[Aib]QGT[αMeF]TSD[4Pal][αMeS]I[αMeL]LD[Orn]K([AEEA-γGlu-C18 diacid])AQ[αMe4Pal]EFI[dE][αMeY]LIEGGPSSGAPPPSGE-NH2 [Example 1164]",
    "pEC50": 7.20
  },
  {
    "substance": "H-Y[Aib]QGTFTSDFS[Orn][αMeL]LDKK([AEEA-γGlu-C18 diacid])AQ[Aib]AFIEYLLEGGPSSGAPPPEGS-NH2 [Example 130]",
    "pEC50": 6.06
  },
  {
    "substance": "H-Y[Aib]QGTFTSD[4Pal]SQ[αMeL]LDKK([γGlu-γGlu-C18 diacid])AQ[αMe4Pal]AFIEYLIAGGPSSGAPPPEGS-NH2 [Example 969]",
    "pEC50": 6.95
  },
  {
    "substance": "H-Y[Aib]QGTFTSD[4Pal]S[Orn][αMeL]LD[Orn]K([γGlu-γGlu-C18 diacid])AQ[αMe4Pal]EFIEYLLAGGPSSGAPPPSGSEE-NH2 [Example 1003]",
    "pEC50": 5.71
  },
  {
    "substance": "H-Y[Aib]QGT[αMePhe(2-F)]TSD[4Pal][αMeS]ILLD[Orn]K([γGlu-γGlu-C18 diacid])AQ[Aib][Orn]FI[dE]YLIEGGPSSGEPPPSGTEE-NH2 [Example 576]",
    "pEC50": 7.25
  },
  {
    "substance": "H-Y[Aib]QGT[αMePhe(2-F)]TSD[4Pal][αMeS]I[αMeL]LD[Orn]QAQ[αMe4Pal]EFI[dE][αMeY]LVEGGPSSGAPPPSGS-NH2 [Example 1231]",
    "pEC50": 8.91
  },
  {
    "substance": "H-Y[Aib]QGT[αMePhe(2-F)]TSD[4Pal]SI[αMeL]LD[Orn]K([γGlu-γGlu-C18 diacid])AQ[αMe4Pal][Orn]FI[dE]YLIEGGPSSGEPPPEGT-NH2 [Example 541]",
    "pEC50": 7.41
  },
  {
    "substance": "H-Y[Aib]QGTFTSD[4Pal]SQ[αMeL]LD[Orn]K([γGlu-γGlu-C18 diacid])AQ[αMe4Pal]AFI[dE][αMeY]LIEGGPSSGAPPPSGSEE-NH2 [Example 1044]",
    "pEC50": 5.95
  },
  {
    "substance": "H-Y[Aib]QGTFTSD[4Pal]SQ[αMeL]LDKK([AEEA-γGlu-C18 diacid])AQ[αMe4Pal]AFIEYLIE[Aib]GESSGAPPPSGE-NH2 [Example 227]",
    "pEC50": 6.38
  },
  {
    "substance": "H-Y[Aib]QGT[αMePhe(2-F)]TSD[4Pal]SILLDKK([γGlu-γGlu-C18 diacid])AQ[Aib]AFIE[αMe4Pal]LEEGGPSSGAPPPSGTE-NH2 [Example 552]",
    "pEC50": 7.06
  },
  {
    "substance": "H-Y[Aib]QGTFTSDFS[Orn][αMeL]LDKK([AEEA-AEEA-γGlu-C18 diacid])AQ[Aib]AFIEYLLE[Aib]GPSSGAPPPSGE-NH2 [Example 111]",
    "pEC50": 6.06
  }
]
